test: DDI study: pharmacokinetics of zanubrutinib in rats alone or with fluconazole / isavuconazole; type: in vivo, Sprague–Dawley (SD) rats; details: Sprague-Dawley, rat, plasma, po, 30 mg/kg, rats, zanubrutinib 30 mg/kg gavage; Group A: the control group (0.5% CMC-Na); n = 6, mean ± SD
Property name: Cmax (ng/mL)
Numbers only, in ng/mL.

Q. Name the reported Cmax value associated with the molecule C=CC(=O)N1CCC([C@@H]2CCNc3c(C(N)=O)c(-c4ccc(Oc5ccccc5)cc4)nn32)CC1 [zanubrutinib]
A. 332

* * *

assay: DDI study: pharmacokinetics of zanubrutinib in rats alone or with fluconazole / isavuconazole; assay type: in vivo, Sprague–Dawley (SD) rats; conditions: Sprague-Dawley, rat, plasma, po, 30 mg/kg, rats, zanubrutinib 30 mg/kg gavage; Group A: the control group (0.5% CMC-Na); n = 6, mean ± SD; read-out: MRT(0−t)
Property name: MRT last (h)
Give bare numbers, in h.

Q. Name the reported MRT last value associated with the compound C=CC(=O)N1CCC([C@@H]2CCNc3c(C(N)=O)c(-c4ccc(Oc5ccccc5)cc4)nn32)CC1 [zanubrutinib]
A. 2.71

* * *

experiment: DDI study: pharmacokinetics of zanubrutinib in rats alone or with fluconazole / isavuconazole; assay type: in vivo, Sprague–Dawley (SD) rats; conditions: Sprague-Dawley, rat, plasma, po, 30 mg/kg, rats, zanubrutinib 30 mg/kg gavage; Group A: the control group (0.5% CMC-Na); n = 6, mean ± SD; read-out: MRT(0−∞)
Property name: MRT inf (h)
One number for each entry, in h.

Q. Name the reported MRT inf value associated with the molecule C=CC(=O)N1CCC([C@@H]2CCNc3c(C(N)=O)c(-c4ccc(Oc5ccccc5)cc4)nn32)CC1 [zanubrutinib]
A. 2.76

* * *

test: DDI study: pharmacokinetics of zanubrutinib in rats alone or with fluconazole / isavuconazole; assay type: in vivo, Sprague–Dawley (SD) rats; details: Sprague-Dawley, rat, plasma, po, 30 mg/kg, rats, zanubrutinib 30 mg/kg gavage; Group C: 20 mg/kg fluconazole; n = 6, mean ± SD; read-out: CLz/F (converted)
Property name: CL/F (mL/min/kg)
Answers are plain numbers, in mL/min/kg.

Q. Name the reported CL/F value associated with the compound C=CC(=O)N1CCC([C@@H]2CCNc3c(C(N)=O)c(-c4ccc(Oc5ccccc5)cc4)nn32)CC1
A. 293

* * *

assay: DDI study: pharmacokinetics of zanubrutinib in rats alone or with fluconazole / isavuconazole; type: in vivo, Sprague–Dawley (SD) rats; conditions: Sprague-Dawley, rat, plasma, po, 30 mg/kg, rats, zanubrutinib 30 mg/kg gavage; Group C: 20 mg/kg fluconazole; n = 6, mean ± SD
Property name: half-life
The number alone won't do; follow it with the unit.

Q. Name the reported half-life value associated with the molecule C=CC(=O)N1CCC([C@@H]2CCNc3c(C(N)=O)c(-c4ccc(Oc5ccccc5)cc4)nn32)CC1
A. 1.37 h

* * *

test: DDI study: pharmacokinetics of zanubrutinib in rats alone or with fluconazole / isavuconazole; format: in vivo, Sprague–Dawley (SD) rats; settings: Sprague-Dawley, rat, plasma, po, 30 mg/kg, rats, zanubrutinib 30 mg/kg gavage; Group A: the control group (0.5% CMC-Na); n = 6, mean ± SD
Property name: AUC(0-inf)

Q. Name the reported AUC(0-inf) value associated with the compound C=CC(=O)N1CCC([C@@H]2CCNc3c(C(N)=O)c(-c4ccc(Oc5ccccc5)cc4)nn32)CC1
A. 1090 ng·h/mL
